Molecular target: Multifunctional protein CAD (Homo sapiens)
Sequence (P27708 whole entry): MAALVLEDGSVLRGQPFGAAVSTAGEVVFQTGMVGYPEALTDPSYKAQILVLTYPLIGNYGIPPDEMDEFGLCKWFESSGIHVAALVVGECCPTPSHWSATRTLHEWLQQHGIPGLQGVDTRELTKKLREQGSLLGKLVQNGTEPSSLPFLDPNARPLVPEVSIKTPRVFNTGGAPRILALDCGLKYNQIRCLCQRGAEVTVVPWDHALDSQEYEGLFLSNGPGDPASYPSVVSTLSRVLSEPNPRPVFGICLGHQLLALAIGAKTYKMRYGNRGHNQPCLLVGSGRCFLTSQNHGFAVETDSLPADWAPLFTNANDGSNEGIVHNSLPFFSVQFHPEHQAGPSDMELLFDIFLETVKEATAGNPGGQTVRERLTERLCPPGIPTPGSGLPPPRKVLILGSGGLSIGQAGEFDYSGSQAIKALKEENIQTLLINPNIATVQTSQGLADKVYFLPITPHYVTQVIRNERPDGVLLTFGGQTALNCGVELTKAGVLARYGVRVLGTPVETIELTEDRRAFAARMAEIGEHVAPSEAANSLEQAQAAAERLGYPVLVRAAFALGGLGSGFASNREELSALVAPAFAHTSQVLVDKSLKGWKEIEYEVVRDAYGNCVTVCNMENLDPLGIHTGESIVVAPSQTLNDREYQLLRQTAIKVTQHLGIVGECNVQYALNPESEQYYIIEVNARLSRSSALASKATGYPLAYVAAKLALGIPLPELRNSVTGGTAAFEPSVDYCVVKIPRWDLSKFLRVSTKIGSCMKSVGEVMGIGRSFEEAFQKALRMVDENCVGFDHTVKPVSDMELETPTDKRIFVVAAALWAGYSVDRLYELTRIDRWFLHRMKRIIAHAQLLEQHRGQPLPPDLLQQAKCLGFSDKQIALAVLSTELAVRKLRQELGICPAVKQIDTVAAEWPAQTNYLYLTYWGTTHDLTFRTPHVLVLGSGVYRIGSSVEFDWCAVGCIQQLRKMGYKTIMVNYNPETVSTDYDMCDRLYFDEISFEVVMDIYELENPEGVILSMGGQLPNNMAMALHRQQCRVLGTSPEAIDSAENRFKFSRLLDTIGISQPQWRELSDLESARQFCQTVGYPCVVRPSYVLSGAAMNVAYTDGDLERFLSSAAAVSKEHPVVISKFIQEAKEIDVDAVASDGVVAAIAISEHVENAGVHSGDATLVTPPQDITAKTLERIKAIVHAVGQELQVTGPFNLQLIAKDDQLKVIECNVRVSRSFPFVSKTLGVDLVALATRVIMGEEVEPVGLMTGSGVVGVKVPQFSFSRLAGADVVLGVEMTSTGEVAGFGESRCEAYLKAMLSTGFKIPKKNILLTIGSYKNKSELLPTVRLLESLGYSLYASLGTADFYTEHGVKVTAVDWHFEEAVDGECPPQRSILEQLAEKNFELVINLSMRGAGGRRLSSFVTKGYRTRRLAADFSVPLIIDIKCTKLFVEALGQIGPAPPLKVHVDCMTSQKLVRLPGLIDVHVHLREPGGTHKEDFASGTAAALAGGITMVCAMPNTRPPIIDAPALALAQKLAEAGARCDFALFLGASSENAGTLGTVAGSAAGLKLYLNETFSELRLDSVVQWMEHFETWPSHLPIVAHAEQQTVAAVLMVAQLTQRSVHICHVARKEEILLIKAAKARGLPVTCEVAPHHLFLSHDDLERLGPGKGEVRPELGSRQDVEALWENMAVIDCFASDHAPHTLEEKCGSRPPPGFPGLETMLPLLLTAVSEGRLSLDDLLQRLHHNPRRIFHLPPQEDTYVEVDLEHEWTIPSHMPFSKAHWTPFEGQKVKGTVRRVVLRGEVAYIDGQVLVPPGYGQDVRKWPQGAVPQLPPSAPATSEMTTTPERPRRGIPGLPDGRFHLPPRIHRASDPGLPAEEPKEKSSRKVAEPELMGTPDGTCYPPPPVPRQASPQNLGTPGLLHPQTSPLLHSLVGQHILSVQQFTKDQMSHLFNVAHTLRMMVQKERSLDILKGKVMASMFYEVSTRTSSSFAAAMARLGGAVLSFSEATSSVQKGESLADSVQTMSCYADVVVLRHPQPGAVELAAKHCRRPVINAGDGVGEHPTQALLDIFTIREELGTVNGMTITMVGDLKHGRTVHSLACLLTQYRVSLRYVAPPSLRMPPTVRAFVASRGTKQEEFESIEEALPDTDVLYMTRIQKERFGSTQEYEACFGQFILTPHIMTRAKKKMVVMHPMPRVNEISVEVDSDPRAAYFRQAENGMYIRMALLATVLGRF
Test: Inhibitory activity against Dihydroorotase (DHO) at pH 6.0
Parameters: species or system Cricetulus griseus
parameter: Ki
Units required after the number.

Need Ki, item CCOC(=O)C(CB(O)O)NC(N)=O (stereo unspecified)
5.07 µM

Hey, just so you know, these numbers are from ChEMBL document CHEMBL1124703.
